# credit: patent US7153869B2

So I've got a bunch of compounds here, and I need their inhibition at 50 µM values.
target: EBP-Ig (N-terminal 225 amino acids of the human EPO receptor joined to an Ig heavy chain) (Homo sapiens); construct: Ig heavy chain (fusion partner); made in house; host or cells: NSO cells (secreted into conditioned media); experiment: Inhibition of [125I]EPO binding to immobilized EBP-Ig (EPO binding protein-Ig), scintillation Flash plate competition assay; conditions: read-out: EPO/EBP-Ig % inh @ 50 μM; Table 11; 50 μM
Sequence (P19235 25-250 limits assumed): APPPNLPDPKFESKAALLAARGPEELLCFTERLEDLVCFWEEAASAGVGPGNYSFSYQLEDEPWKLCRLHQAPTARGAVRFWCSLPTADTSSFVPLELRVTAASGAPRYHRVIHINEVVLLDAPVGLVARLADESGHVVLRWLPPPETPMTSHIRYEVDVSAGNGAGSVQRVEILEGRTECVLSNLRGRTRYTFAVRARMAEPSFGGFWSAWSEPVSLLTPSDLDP
Answers are plain numbers, in %.

// known answers, use as guide
1) O=C(O)CC(C(=O)NCCCOCCOCCOCCCNC(=O)C(CC(=O)O)N(Cc1ccc(OCc2ccccc2)cc1)Cc1ccc(OCc2ccccc2)cc1)N(Cc1ccc(OCc2ccccc2)cc1)Cc1ccc(OCc2ccccc2)cc1 (centres unmarked) :: 66
2) O=C(O)CC(C(=O)NCCCOCCCCOCCCNC(=O)C(CC(=O)O)N(Cc1ccc(OCc2ccccc2)cc1)Cc1ccc(OCc2ccccc2)cc1)N(Cc1ccc(OCc2ccccc2)cc1)Cc1ccc(OCc2ccccc2)cc1 (centres unmarked) :: 75
3) Cc1ccc(S(=O)(=O)Nc2cccc(CN(Cc3cccc(Oc4ccccc4)c3)C(CCC(=O)O)C(=O)NCCOCCOCCNC(=O)C(CCC(=O)O)N(Cc3cccc(NS(=O)(=O)c4ccc(C)cc4)c3)Cc3cccc(Oc4ccccc4)c3)c2)cc1 (centres unmarked) :: 78
4) O=C(O)CCC(C(=O)NCCOCCOCCNC(=O)C(CCC(=O)O)N(Cc1ccc(OCc2ccccc2)cc1)Cc1ccc(OCc2ccccc2)cc1)N(Cc1ccc(OCc2ccccc2)cc1)Cc1ccc(OCc2ccccc2)cc1 (centres unmarked) :: 79

Attention now shifts to the item below.
Would you mind telling me what inhibition at 50 µM value was observed for CCCCC(=O)Nc1cccc(CN(Cc2cccc(Oc3ccccc3)c2)C(CCC(=O)O)C(=O)NCCOCCOCCNC(=O)C(CCC(=O)O)N(Cc2cccc(NC(=O)CCCC)c2)Cc2cccc(Oc3ccccc3)c2)c1 (centres unmarked) ?
47
